# pIC50 per entry
target desc: IgE antibodies of the allergic patient serum pool Bor 18/100 (20 donors)
assay protocol: EAST inhibition, serum pool Bor 18/100
pIC50 is a log-scale quantity: -log10 of the concentration expressed in molar.

| binder | pIC50 |
| --- | --- |
| rPhl p 5b deletion mutant DM1 (deletion K50-P132, D49L) (protein) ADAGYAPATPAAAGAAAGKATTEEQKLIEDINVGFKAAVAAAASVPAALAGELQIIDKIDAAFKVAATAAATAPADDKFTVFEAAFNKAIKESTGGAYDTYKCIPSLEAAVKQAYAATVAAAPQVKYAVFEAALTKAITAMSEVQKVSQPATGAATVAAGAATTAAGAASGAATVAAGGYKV | 7.55 |
| rPhl p 5b point mutant PM3 (A13C) (protein) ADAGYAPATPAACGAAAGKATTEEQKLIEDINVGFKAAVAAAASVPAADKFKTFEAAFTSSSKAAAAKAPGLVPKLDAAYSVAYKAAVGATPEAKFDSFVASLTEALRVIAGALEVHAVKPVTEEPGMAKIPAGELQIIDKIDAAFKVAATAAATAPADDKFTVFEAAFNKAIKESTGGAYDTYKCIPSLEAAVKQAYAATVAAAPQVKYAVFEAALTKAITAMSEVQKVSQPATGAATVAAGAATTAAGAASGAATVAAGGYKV | 8.32 |
| rPhl p 5b deletion mutant DM3 (deletion A154-T177, A220T) (protein) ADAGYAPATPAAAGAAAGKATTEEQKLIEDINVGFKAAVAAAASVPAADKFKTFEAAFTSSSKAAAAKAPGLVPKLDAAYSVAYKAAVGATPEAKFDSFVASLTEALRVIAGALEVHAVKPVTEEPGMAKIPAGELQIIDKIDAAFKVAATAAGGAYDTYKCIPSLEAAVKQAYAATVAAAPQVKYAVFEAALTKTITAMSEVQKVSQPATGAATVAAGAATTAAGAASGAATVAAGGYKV | 5.39 |

**Q:** Requested read-out: pIC50. Entry: recombinant Phl p 5b (wild type) (protein) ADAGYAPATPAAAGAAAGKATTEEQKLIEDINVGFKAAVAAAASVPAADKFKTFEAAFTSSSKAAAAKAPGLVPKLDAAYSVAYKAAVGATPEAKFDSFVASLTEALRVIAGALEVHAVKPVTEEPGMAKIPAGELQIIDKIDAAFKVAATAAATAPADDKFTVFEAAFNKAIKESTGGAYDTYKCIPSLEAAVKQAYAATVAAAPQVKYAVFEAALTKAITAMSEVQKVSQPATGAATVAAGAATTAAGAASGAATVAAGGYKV
**A:** 8.30

The origin of these recorded values is patent US6919086B1.
